These measurements were taken from the supplement of paper PMC6555819.

Test system: PPARg:RXRa 90nM:30nM, anti-RXR (NR concentration 90 nM, RXRa partner concentration 30 nM)
assayMethodText: PBM binding z-score (relative to random genomic background probes); higher = stronger binding; sequences stand for … in GC…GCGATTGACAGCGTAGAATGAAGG
readout: PBM binding z-score

Would you please look over these solved cases?
macromoleculeSequence | result
TCGAGTTGGTTAGGGGCATTCAGAATGGCGTCGA | 0.343
CGAACTAGGTCATTGACAGGGCAGTGAATAGTAA | 5.96
CCTACTGCGCCATTCAGAGGTCATTGATCATATG | 0.91
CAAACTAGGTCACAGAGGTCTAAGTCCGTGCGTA | 6.98
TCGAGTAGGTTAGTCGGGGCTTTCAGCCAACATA | 0.595
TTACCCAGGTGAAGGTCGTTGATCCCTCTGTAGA | 1.04
GCTGCTAGGTCAGGTTGGGCAGCTAACGGGTACG | 0.136
ACTAGTCGGTCAGCTGAGGTCACACACAATTCGG | 2

Query (sequence): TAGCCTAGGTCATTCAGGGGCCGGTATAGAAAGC ; field requested: PBM binding z-score
1.41

Query (sequence): TCATCTAGGTAAATGCTAGGTGAAAGTCCGATCT ; field requested: PBM binding z-score
2.92

Query (sequence): GCGACTGGGGCATAAGCAGGTTACCATAACTTAA ; field requested: PBM binding z-score
1.26

----------
Tested on: RARb:RXRa (NR concentration 270 nM, RXRa partner concentration 90 nM)
assayMethodText: PBM binding z-score (relative to random genomic background probes); higher = stronger binding; sequences stand for … in GC…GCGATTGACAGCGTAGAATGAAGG
Listed here are sequences together with their documented PBM binding z-score.
Number only, no unit.

Would you please look over these solved cases?
macromoleculeSequence | PBM binding z-score
TCATATAGGTAAAAGGCGAAAGTCGGTGTGGTAA | 0.164
CCTTGCGGGTCACGAGGTTATAGCACGACGAGCG | 4.47
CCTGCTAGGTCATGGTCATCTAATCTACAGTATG | 3.76
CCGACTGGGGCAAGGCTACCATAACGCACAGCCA | 0.763
ATCGAAAGGTCGAGGTGAGAATAGAGAAAGGGAA | 4.16
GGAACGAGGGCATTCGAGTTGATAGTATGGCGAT | 1.98
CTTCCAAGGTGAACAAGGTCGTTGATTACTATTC | 2.18
ATCTCTAGGTAAAAGTTCAATGAATCCCGAGGAT | 2.64

Hi! What's the reported PBM binding z-score for CCTACTGGGACATCAGGTCATTGATATCAACGTT on RARb:RXRa (NR concentration 270 nM, RXRa partner concentration 90 nM)?
1.99

Hi! What's the reported PBM binding z-score for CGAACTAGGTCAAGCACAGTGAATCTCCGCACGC on RARb:RXRa (NR concentration 270 nM, RXRa partner concentration 90 nM)?
3.98

----------
System: RARg homodimer (NR concentration 270 nM)
assayMethodText: PBM binding z-score (relative to random genomic background probes); higher = stronger binding; sequences stand for … in GC…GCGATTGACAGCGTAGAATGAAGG
Threshold check on PBM binding z-score: at or above 1 gives label 1, strictly below gives label 0.

Example results:
macromoleculeSequence | group
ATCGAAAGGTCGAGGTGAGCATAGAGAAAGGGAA | label 1
TCATATAGGTAAATGCTAGGTGAAAATCCGATCT | label 0
GCTATAAGTTGAAAGGGCAACCGAATGATTCTCG | label 1

Could you please find out whether TCTTGTAAATCAAGCAGGTTAAGAAAGCCTGAGT has PBM binding z-score that meets 1 or exceeds it?
label 0

Could you please find out whether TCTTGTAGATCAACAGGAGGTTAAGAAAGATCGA has PBM binding z-score that meets 1 or exceeds it?
label 0

Could you please find out whether TTACCAAGGTGAGATGAGGTCGTTGATCCAACTC has PBM binding z-score that meets 1 or exceeds it?
label 1

Could you please find out whether GATCGGAGGACAAGGTCAGAGCTTTGTCCGTAGA has PBM binding z-score that meets 1 or exceeds it?
label 1

Could you please find out whether GCTCGGAGGACAAGGTCATAGCTTTGTCCGTAGA has PBM binding z-score that meets 1 or exceeds it?
label 1

Could you please find out whether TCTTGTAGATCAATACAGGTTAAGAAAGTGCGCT has PBM binding z-score that meets 1 or exceeds it?
label 0

Could you please find out whether ACAATTAGTTGAGACGAGGGCAACCGATAGGTTG has PBM binding z-score that meets 1 or exceeds it?
label 0

Could you please find out whether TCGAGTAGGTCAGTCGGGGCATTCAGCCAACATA has PBM binding z-score that meets 1 or exceeds it?
label 1

Could you please find out whether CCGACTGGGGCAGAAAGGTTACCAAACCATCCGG has PBM binding z-score that meets 1 or exceeds it?
label 1
